meta.source: ChEMBL document CHEMBL1201862

tested on: OVCAR-3; test: NCI tumour cell line growth inhibition, 48 h
The source made the active and inactive calls. Rule as the data show it: active = GI50 up to about 1.1 µM and inactive = higher.
Outcome (select one): class 1 = active, class 0 = inactive

Call for entry O=C(O)CCC(=O)Oc1ccc(O)c2c1CCCC2=O : class 0

Dear all, I need the recorded test outcome for O=C(CC(C(=O)c1ccco1)c1ccco1)c1ccco1 (stereo not given) , thank you. class 0

Hi team, can someone confirm the assay call for COc1ccc(/C=C2\CCC(Cc3ccccc3)(CN(C)C)C2=O)cc1 (stereo not given) ? class 0

Fill in: this test's call for CC(C)=CC1CC(C)C2(CCC3(C)CC4C(C(=O)CC4(C)O)/C(C=O)=C\CC32)O1 (stereo not given) is ___ class 1

Now for a further molecule.
Any idea what this test logged for O=C(O)C(Cc1ccccc1)N1C(=O)c2ccccc2C1=O (stereo not given) ? class 0

----------
Form field: GI50 (one value per entry).
test system: NCI-H23; experiment: NCI tumour cell line growth inhibition, 48 h
Active and inactive are the calls of the source. No stated cut-off is given here; in the data, active = GI50 up to about 1.1 µM and inactive = higher.

Before answering, review these 5 worked examples.
Report the value of GI50 obtained on NCI-H23 for O=S(=O)(O)n1ccnc1 . > 100 µM (inactive)

Lab note: NCI-H23 assay, enter GI50 for CC(C)=CCC/C(C)=C\CC/C(C)=C/CO here 23.8 µM (inactive)

Please tell me the measured GI50 for C/C(=N\NC(N)=S)c1ccc(C2CCCCC2)cc1 ; system: NCI-H23. 16.9 µM (inactive)

Report value: GI50, system: NCI-H23, compound: Cc1nc2c3c(ccc2nc1O)C(=O)c1ccccc1C3=O 66.7 µM (inactive)

Please respond with reported GI50 (system NCI-H23) for Cc1ccc(-n2nncc2[Si](C)(C)C)s1 . > 100 µM (inactive)

***
Provide GI50, tested on NCI-H23, for COc1cc2nc3n(c2cc1OC)C(O)c1c(Cl)nc(SC)nc1S3 (centres undefined) . 4.21 µM (inactive)

For NCI-H23, give GI50 of the listed compound: C=C1[C@H](OC(C)=O)[C@H]2[C@@H](OC(C)=O)[C@@H](C)C[C@]2(C)C(=O)[C@H](C)/C=C/C(C)(C)C(=O)[C@H](OCC(C)C)[C@H]1OC(C)=O > 25 µM (inactive)

Report GI50 from NCI-H23 testing of Cc1nc2ccccc2c(=O)n1NC(=O)c1ccccc1O > 100 µM (inactive)

Please report the measured GI50 for COC(=O)[C@@H](COC(=O)/C=C/c1ccc(OC(C)=O)c(OC(C)=O)c1)NC(=O)/C=C/c1ccc(OC(C)=O)c(OC(C)=O)c1 tested on NCI-H23. 28.1 µM (inactive)

Write down the reported GI50 (system: NCI-H23) of CCCCCCC(N)(CCCCCC)C(=O)Nn1c(C)ccc1C 15.5 µM (inactive)

Answer briefly: GI50 recorded on NCI-H23 for COC(=O)[C@]1(C)CC[C@]2(C)CC[C@]3(C)C4[C@H]5Oc6c(cc7c(c6C)CCC6[C@@]7(C)CC[C@@]7(C)C8[C@](C)(CCC[C@@]8(C)C(=O)OC)CC[C@]67C)O[C@H]5c5c(cc6c(c5C)O[C@@]5(C)C7=CC=C8[C@@](C)(CC[C@@]9(C)[C@@H]%10C[C@](C)(C(=O)OC)CC[C@]%10(C)CC[C@]89C)C7=CC(=O)[C@@]5(O)O6)[C@]4(C)CC[C@@]3(C)C2C1 (some centres undefined) 8.97 µM (inactive)
